- Read-out: Lipase C (LIPC), LIPC (gene 3990)
- assay_procedure: LTEA_HepaRG_LIPC: Life Technologies and Expression Analysis (LTEA) Assay for Lipase C (LIPC) using HepaRG (AID 2283514)
- protocol_conditions: mRNA level, 48 h; actives raise or lower the signal
- Description: LTEA_HepaRG is a cell based, multiplexed-readout assay that uses HepaRG, a human liver cell line, with measurements taken at 48 hours after chemical dosing on a 96-well plate.LTEA_HepaRG_LIPC is one of 102 assay component(s) measured in the LTEA HepaRG cell culture assay. It is a marker of Steatosis.Data from the assay component LTEA_HepaRG_LIPC was analyzed into 1 endpoint. […]
The source made the active and inactive calls. How the source made its calls: active means hit-call score of the fitted dose curve at least 0.9, where 1 is the maximum; inactive means score below 0.9.
// allowed return values: active, inactive

Check out these entries, answers already filled in.
[[record]]
molecule = "Oc1cc2ccccc2c2ccccc12"
group = "inactive"

[[record]]
molecule = "CCCCCCCCCCCCc1ccccc1S(=O)(=O)O"
group = "active"

[[record]]
molecule = "CCc1nn(C2CCCCC2)c2cc(C3(C#N)CCC(C(=O)O)CC3)ccc12 (stereo unspecified)"
group = "active"


Asked: Recorded test call requested for CC(C)(C)c1cccc(C(C)(C)C)c1O
Given back: inactive

Asked: Please indicate how the test categorized N#C[C@@H]1CC(F)(F)CN1C(=O)CNC1CC2CCC(C1)N2c1ncccn1 (stereo partly specified) .
Given back: inactive

Asked: Test call, this molecule: CC(C)(C)CC(C)(C)c1ccc(O)c(-n2nc3ccccc3n2)c1
Given back: inactive

* * *

- assay_procedure: CCTE_Harrill_HTTr_CellCount_MCF7: CCTE's Cell Proliferation Assessment for the High-Throughput Transcriptomics (HTTr) Platform, Harrill Lab (AID 2284012);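 further: count of Hoechst-stained nuclei per well by high-content imaging in MCF-7 cells; cells exposed to compound for six hours; intended direction is loss of nuclei count meaning fewer cells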
Records with an inconclusive call do not appear. The source made the active and inactive calls. How the source made its calls: active means hit-call score of the fitted dose curve at least 0.9, where 1 is the maximum; inconclusive means response in the unintended direction; inactive means score below 0.9.
Give your call using only these classes: T (active), F (inactive)

[[record]]
compound = "CC(=O)NC1(c2cccc(F)c2)CCN(CC[C@@]2(c3ccc(Cl)c(Cl)c3)CN(c3ccccc3)C(=O)CO2)CC1"
group = "F"

[[record]]
compound = "CC1=C(/C=C/C(C)=C/C=C/C(C)=C/C(=O)O)C(C)(C)CCC1"
group = "F"

[[record]]
compound = "C=C(C)C(=O)OCCC(F)(F)C(F)(F)C(F)(F)C(F)(F)C(F)(F)C(F)(F)F"
group = "F"


Asked: Tell me the recorded outcome of this test for CCC(=C(c1ccc(O)cc1)c1ccc(OCCN(C)C)cc1)c1ccccc1 .
Given back: F

Asked: Dear all, I need the recorded test outcome for COc1ccc([N+](=O)[O-])cc1N , thank you.
Given back: F

Asked: Per the records of this test, what outcome belongs to CC(C)CCCCCCOC(=O)CCCCC(=O)OCCCCCCC(C)C ?
Given back: F

Asked: Lab log entry: Cc1cc(CCN2CCN(c3nsc4ccccc34)CC2)cc2c1NC(=O)CC2(C)C — outcome as called in the assay?
Given back: T

Asked: Per the assay record, what outcome was assigned to OC1CCC(C2CCCCC2)CC1 (configuration not stated) ?
Given back: F

Asked: Hi, do you know how O=[N+]([O-])c1ccc(O)cc1 came out in this test?
Given back: F

* * *

- Read-out: Interleukin-8 (IL8), CXCL8 (gene 3576)
- assay_procedure: BSK_CASM3C_IL8: BioMAP Diversity Plus: CASM3C Assay for Interleukin-8 (IL8) Biomarker Activity (AID 2283042);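 further: IL-8 protein level quantified by ELISA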
- protocol_conditions: primary human coronary artery smooth muscle cells; actives raise or lower the signal
Activity calls are given as the source filed them. How the source made its calls: active means hit-call score of the fitted dose curve at least 0.9, where 1 is the maximum; inactive means score below 0.9.
Select the matching outcome among 1 = active, -1 = inactive

Here's what some known entries look like.
[[record]]
smiles_structure = "Cc1oc(-c2ccccc2)nc1CCOc1ccc(C[C@H](Nc2ccccc2C(=O)c2ccccc2)C(=O)O)cc1"
group = -1

[[record]]
smiles_structure = "CN(C)C=O"
group = -1

[[record]]
smiles_structure = "C#C[C@]1(O)CC[C@H]2[C@@H]3CCC4=CC(=O)CC[C@@H]4[C@H]3CC[C@@]21C"
group = -1

[[record]]
smiles_structure = "Cc1cc(CCN2CCN(c3nsc4ccccc34)CC2)cc2c1NC(=O)CC2(C)C"
group = 1

[[record]]
smiles_structure = "CC(C)(C)c1cc(C(C)(C)C)c(O)c(C(C)(C)C)c1"
group = -1

[[record]]
smiles_structure = "c1ccc2c(c1)Cc1ccccc1-2"
group = -1


Asked: GET /call?item= OCCC(F)(F)C(F)(F)C(F)(F)C(F)(F)C(F)(F)C(F)(F)F returns the recorded outcome of this test.
Given back: -1

* * *

- Read-out: CFLAR gene, CFLAR (gene 8837)
- assay_procedure: LTEA_HepaRG_CFLAR: Life Technologies and Expression Analysis (LTEA) Assay for CFLAR gene using HepaRG (AID 2283455)
- protocol_conditions: mRNA level, 48 h; actives raise or lower the signal
Activity calls are given as the source filed them. The calls were made as follows: active = hit-call score of the fitted dose curve at least 0.9, where 1 is the maximum; inactive = score below 0.9.
# valid calls are active, inactive; nothing else

Asked: Which outcome did this test record for the molecule OC1CCC(C2CCCCC2)CC1 (configuration not stated) ?
Given back: inactive

Asked: Fill in: this test's call for CC1=C(/C=C/C(C)=C/C=C/C(C)=C/C(=O)O)C(C)(C)CCC1 is ___
Given back: active

Asked: Returns: the outcome recorded for CC(C)CCCCCCOC(=O)CCCCC(=O)OCCCCCCC(C)C in this assay.
Given back: inactive

Asked: Please let me know the test result on file for CC#C[C@]1(O)CC[C@H]2[C@@H]3CCC4=CC(=O)CCC4=C3[C@@H](c3ccc(N(C)C)cc3)C[C@@]21C .
Given back: inactive

Asked: Called result for CCc1ccc(CCOc2ccc(CC3SC(=O)NC3=O)cc2)nc1 (configuration not stated)
Given back: inactive

Asked: Please indicate how the test categorized CCCCCCCC(=O)O .
Given back: inactive

Asked: Kindly provide the recorded test outcome for the following molecule: Cc1cc(CCN2CCN(c3nsc4ccccc34)CC2)cc2c1NC(=O)CC2(C)C
Given back: inactive

* * *

- measurement_target: Estrogen receptor (Homo sapiens)
- assay_procedure: CCTE_Deisenroth_AIME_96WELL_LUC_Inactive: CCTE's 96-well Estrogen Receptor Transactivation Assay without AIME metabolic competence (ERTA luciferase; metabolism negative), Deisenroth Lab (AID 2284025)
Results filed as inconclusive are left out. Calls of active or inactive are those of the source. Rule for the calls: active = hit-call score of the fitted dose curve at least 0.9, where 1 is the maximum; inconclusive = response in the unintended direction; inactive = score below 0.9.
Respond with a class label; see 1 for active, -1 for inactive

[[record]]
smiles_structure = "O=C(/C=C/c1ccc(O)cc1)CC(=O)/C=C/c1ccc(O)cc1"
group = 1

[[record]]
smiles_structure = "c1ccc2cc3c(ccc4ccccc43)cc2c1"
group = 1

[[record]]
smiles_structure = "COc1cc(CCC(=O)CC(=O)CCc2ccc(O)c(OC)c2)ccc1O"
group = -1


Shift focus to the following entry.
Asked: Can you look up the reported call for c1ccc2c(c1)ccc1ccccc12 for me?
Given back: 1

* * *

- Read-out: Monokine induced gamma interferon (MIG), CXCL9 (gene 4283)
- assay_procedure: BSK_CASM3C_MIG: BioMAP Diversity Plus: CASM3C Assay for Monokine induced gamma interferon (MIG) Biomarker Activity (AID 2283048);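 further: MIG protein level measured by ELISA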
- protocol_conditions: primary human coronary artery smooth muscle cells; actives raise or lower the signal
Active and inactive are the calls of the source. How the source made its calls: active means hit-call score of the fitted dose curve at least 0.9, where 1 is the maximum; inactive means score below 0.9.
property_measured: AC50

The examples below pair each entry with its known result.
[[record]]
compound = "OC1CCCCC1"
observed_value = "inactive"

[[record]]
compound = "CC(C)(C)c1cccc(C(C)(C)C)c1O"
observed_value = "inactive"

[[record]]
compound = "CCc1nn(C2CCCCC2)c2cc(C3(C#N)CCC(C(=O)O)CC3)ccc12 (stereo not given)"
observed_value = "13.1 µM (active)"

[[record]]
compound = "CC(C)(C)c1cc(C(C)(C)C)c(O)c(C(C)(C)C)c1"
observed_value = "inactive"

[[record]]
compound = "O=C(OCCOCCOC(=O)c1ccccc1)c1ccccc1"
observed_value = "inactive"

[[record]]
compound = "C[C@@H]1C[C@H]2[C@@H]3CCC4=CC(=O)C=C[C@]4(C)[C@@]3(F)[C@@H](O)C[C@]2(C)[C@@]1(O)C(=O)COP(=O)(O)O"
observed_value = "inactive"

[[record]]
compound = "CN1CCC[C@H]1c1cccnc1"
observed_value = "inactive"

[[record]]
compound = "CCc1ccc(CCOc2ccc(CC3SC(=O)NC3=O)cc2)nc1 (stereo not given)"
observed_value = "inactive"


Next:
Asked: Consider the compound NC(=O)N1C(=O)C(C(=O)c2cc(Cl)cs2)c2cc(F)c(Cl)cc21 (stereo not given) . State its measured AC50.
Given back: inactive

* * *

- assay_procedure: CEETOX_H295R_11DCORT: CeeTox H295R High-throughput Steroidogenesis Assay for 11-Deoxycortisol (11DCORT) (AID 2283432)
- protocol_conditions: actives raise or lower the signal
Activity calls are given as the source filed them. How the source made its calls: active means hit-call score of the fitted dose curve at least 0.9, where 1 is the maximum; inactive means score below 0.9.
Respond using exactly one of the listed classes: TRUE for active, FALSE for inactive

[[record]]
compound = "CCCOC(=O)c1ccc(O)cc1"
group = "TRUE"


Asked: What call does the record list for NC(=O)N(O)[C@@H]1C=C[C@H](Oc2cccc(Oc3ccc(F)cc3)c2)C1 ?
Given back: FALSE

Asked: Outcome logged for C[C@@H]1C[C@H]2[C@@H]3CCC4=CC(=O)C=C[C@]4(C)[C@@]3(F)[C@@H](O)C[C@]2(C)[C@@]1(O)C(=O)COP(=O)(O)O in this assay:
Given back: FALSE

Asked: Which outcome was assigned to O=c1c(-c2ccc(O)cc2)coc2cc(O)ccc12 in this test?
Given back: TRUE

Asked: What did this assay record as the result for CCc1nn(C2CCCCC2)c2cc(C3(C#N)CCC(C(=O)O)CC3)ccc12 (stereo unspecified) ?
Given back: FALSE

Asked: Hello, I am checking results. What call was entered for Nc1cccc2c(N)cccc12 ?
Given back: TRUE

Every entry's value here was drawn from PubChem BioAssay (EPA / NIEHS).
